# Tested on: SR leukemia
# testName: NCI tumour cell line growth inhibition, 48 h
measuredParameter: TGI

Ask: Any idea what its TGI is? The compound is Cc1cc2cc(Cl)ccc2nc1C(=O)c1ccccc1
Result: > 100 µM

Ask: Any idea what its TGI is? The compound is COc1ccc(-n2nnc3c(C#N)c(-c4ccccc4)c(C)n3c2=O)cc1
Result: 91 µM

Ask: Any idea what its TGI is? The compound is CC1=C2C(=O)C3[C@@H](CCC4=CC(=O)CC[C@@]43C)C2CC[C@]12O[C@@H]1C[C@H](C)CN[C@H]1[C@H]2C (some centres not stated)
Result: 43.4 µM

Ask: Any idea what its TGI is? The compound is N#Cc1ccc(/C=N\N2C(=O)c3ccccc3C2=O)cc1
Result: > 100 µM

Ask: Any idea what its TGI is? The compound is COC(=O)C(/C(=N/N)C(=O)Nc1ccc(C)c(C)c1)c1nc2ccc(Cl)cc2[nH]c1=O (configuration not stated)
Result: > 100 µM

Ask: Any idea what its TGI is? The compound is O=C(O)CN1CCNCCN(CC(=O)O)CCNCC1
Result: > 96.5 µM

Ask: Any idea what its TGI is? The compound is c1ccc(-c2nc3sccn3n2)cc1
Result: > 100 µM

Ask: Any idea what its TGI is? The compound is COc1ccc(-c2cc(-c3ccc(O)cc3)nc3nc(=S)[nH]c(N)c23)cc1
Result: > 100 µM

Ask: Any idea what its TGI is? The compound is CCCCCCNC(=O)c1cc(C#Cc2cc(OC)ccc2OC)ccc1OC
Result: > 100 µM

Ask: Any idea what its TGI is? The compound is CN1C[C@H]2[C@@H](C1=O)[C@H](c1ccc([N+](=O)[O-])cc1)ON2C
Result: > 100 µM

Ask: Any idea what its TGI is? The compound is O=C(CSc1nc2ccc([N+](=O)[O-])cc2[nH]1)Nc1cccc(Cl)c1
Result: > 45.7 µM

Ask: Any idea what its TGI is? The compound is O=C(Nc1ncc(Cc2ccccc2)s1)c1ccc2c(c1)OCCO2
Result: > 100 µM

Ask: Any idea what its TGI is? The compound is Cn1c(=O)cc(NNc2ccc(Br)cc2)[nH]c1=O
Result: > 100 µM

Ask: Any idea what its TGI is? The compound is Cn1c(=O)nc2n(CCO)ccnc-2c1=O
Result: > 100 µM

Ask: Any idea what its TGI is? The compound is O=C(Nc1ccc(Cl)c(Cl)c1)C(=O)C(C1OC(=O)c2ccccc21)[N+](=O)[O-] (configuration not stated)
Result: > 100 µM

Ask: Any idea what its TGI is? The compound is CCc1ccc(CCC(=O)Nc2ncc(Cc3cc(Cl)ccc3Cl)s2)o1
Result: 7.92 µM

Ask: Any idea what its TGI is? The compound is COc1ccc2c(C)cc(N/N=C/c3sccc3C)nc2c1
Result: 87.3 µM

Ask: Any idea what its TGI is? The compound is O=C(CC(=O)N(C(=O)c1ccccc1)c1ccc(Cl)cc1)N/N=C\c1ccccc1O
Result: > 100 µM

Ask: Any idea what its TGI is? The compound is COc1ccc(C(=O)C(c2ccc(OC)cc2)C2C(=O)Oc3ccccc32)cc1 (configuration not stated)
Result: > 100 µM

Ask: Any idea what its TGI is? The compound is COc1c(C(=O)/C(=N/Nc2ccccc2)C(C)=O)c(O)c(OC)c2occc12
Result: > 100 µM

Ask: Any idea what its TGI is? The compound is O=C(c1ccccn1)c1nnn2ccccc12
Result: > 100 µM

Ask: Any idea what its TGI is? The compound is COc1ccc(NC(=O)CC/C(CC(=O)c2ccccc2Cl)=N\Nc2nnc(C)n2N)cc1
Result: > 100 µM

* * *

# System: UACC-257 melanoma
# testName: NCI tumour cell line growth inhibition, 48 h; in the data active = GI50 below about 0.43 µM; inactive = the rest
Select the correct class. Options are active, inactive and nothing else.

Ask: Dear all, I need the recorded test outcome for CC1(C)CC[C@]2(C(=O)n3ccnc3)CC[C@]3(C)[C@H](C(=O)C=C4[C@@]5(C)C=C(C#N)C(=O)C(C)(C)[C@@H]5CC[C@]43C)[C@@H]2C1 , thank you.
Result: active

Ask: Dear all, I need the recorded test outcome for Cn1cc(C2=C(c3c4n(c5ccccc35)CC(CN)C4)C(=O)NC2=O)c2ccccc21 (stereo unspecified) , thank you.
Result: inactive

Ask: Dear all, I need the recorded test outcome for O=S(=O)(O)c1ccc(Cl)cc1.[Cd] , thank you.
Result: inactive

Ask: Dear all, I need the recorded test outcome for O=C1Nc2ccccc2C1(c1ccc(O)c(F)c1)c1ccc(O)c(F)c1 , thank you.
Result: inactive

Ask: Dear all, I need the recorded test outcome for NC(=O)c1nnn(Cc2cc(Cl)c(C(=O)c3ccc(Cl)cc3)c(Cl)c2)c1N , thank you.
Result: inactive

Ask: Dear all, I need the recorded test outcome for COc1ccc(Nc2c3c4c(cccc4[nH]c2=O)C(=O)c2ccccc2-3)cc1 , thank you.
Result: inactive

Ask: Dear all, I need the recorded test outcome for CC1(C)CC(=O)C2=C(C1)NC(SSC1=C(C#N)C(c3ccc(Br)cc3)C3=C(CC(C)(C)CC3=O)N1)=C(C#N)C2c1ccc(Br)cc1 (stereo unspecified) , thank you.
Result: inactive

Ask: Dear all, I need the recorded test outcome for O=C(Nc1ncc(Cc2ccccc2)s1)c1ccc2c(c1)OCCO2 , thank you.
Result: inactive

Ask: Dear all, I need the recorded test outcome for CN(C)CCCNC(=O)c1cc(NC(=O)CCNC(=O)c2ccc3c(c2)C(=O)c2ccccc2C3=O)cn1C , thank you.
Result: inactive

Ask: Dear all, I need the recorded test outcome for COc1cc(C(=O)NC2CCN(C)CC2)ccc1Nc1ncc2c(n1)N(C1CCCC1)CC(F)(F)C(=O)N2C , thank you.
Result: active

Ask: Dear all, I need the recorded test outcome for COc1ccc(C(=O)C(c2ccc(OC)cc2)C2C(=O)Oc3ccccc32)cc1 (stereo unspecified) , thank you.
Result: inactive

Ask: Dear all, I need the recorded test outcome for COc1ccc2nc3cccc([N+](=O)[O-])c3c(NCCN(CCO)CCO)c2c1 , thank you.
Result: active

Ask: Dear all, I need the recorded test outcome for CC(C)(C)C(=O)OCOP(=O)(OCOC(=O)C(C)(C)C)C1CCCN(OC(=O)c2ccccc2)C1=O (stereo unspecified) , thank you.
Result: inactive

Ask: Dear all, I need the recorded test outcome for C=C1C(=O)O[C@H]2[C@H]1CC/C(COC(=O)/C=C\C(=O)NCc1ccc(Cn3c(=O)sn(-c4ccc(OC)cc4)c3=O)cc1)=C\CC[C@@]1(C)O[C@@H]21 , thank you.
Result: inactive

Ask: Dear all, I need the recorded test outcome for C#CC[C@@H]1C[C@]2(C)[C@H]3CC[C@@H]4[C@H]5[C@H](C(=C)C)CC[C@]5(C(=O)O)CC[C@@]4(C)[C@]3(C)CC[C@H]2C(C)(C)[C@H]1O , thank you.
Result: inactive

Ask: Dear all, I need the recorded test outcome for Nc1ncnc2c1c(-c1cccc(OCc3ccccc3)c1)cn2C1CC(CN2CCCC2)C1 (stereo unspecified) , thank you.
Result: inactive

* * *

# System: M19-MEL melanoma
# testName: NCI tumour cell line growth inhibition, 48 h
measuredParameter: TGI (µM)
Please reply with the bare figure in µM and do not write the unit itself.

Ask: Any idea what its TGI is? The compound is COCC1C(=O)c2cc3c(cc2C12C=CC1(C=C2)OCCO1)OCO3 (stereo not drawn)
Result: 14.7

Ask: Any idea what its TGI is? The compound is O=C1C(c2ccc([N+](=O)[O-])cc2)=[N+]([O-])c2ccccc21
Result: 41.5

* * *

Record form. Attribute: log10(TGI). Fill in for each entry.
# System: HS 578T breast
# testName: NCI tumour cell line growth inhibition, 48 h
Scale: decimal log of TGI, TGI in µM.

Ask: Any idea what its log10(TGI) is? The molecule is CCCCCCc1cc2cc(C(=O)Nc3ccccc3F)c(=N)oc2cc1O
Result: 1.80

Ask: Any idea what its log10(TGI) is? The molecule is COCC[N+](CCNC(=O)c1cccc2c(N)c3cccc(C)c3nc12)(CCOC)Cc1ccc([N+](=O)[O-])cc1
Result: 1.59

Ask: Any idea what its log10(TGI) is? The molecule is COc1cc(C(=O)NC2CCN(C)CC2)ccc1Nc1ncc2c(n1)N(C1CCCC1)CC(F)(F)C(=O)N2C
Result: 0.18

Ask: Any idea what its log10(TGI) is? The molecule is C=CC1(c2ccc3ccccc3c2)OCC(CC)(CC)CO1
Result: 1.62

Ask: Any idea what its log10(TGI) is? The molecule is COc1cc(CNc2nc3ccccc3nc2-c2cccs2)cc(OC)c1OC
Result: 1.87

Ask: Any idea what its log10(TGI) is? The molecule is CC(C)(C)[Si](C)(C)OCC1OC(n2cc(F)c(=O)[nH]c2=O)CC1O[Si](C)(C)C(C)(C)C (stereo not drawn)
Result: 1.42

Ask: Any idea what its log10(TGI) is? The molecule is O=C(CC(=O)N(C(=O)c1ccccc1)c1ccc(Cl)cc1)N/N=C\c1ccccc1O
Result: 1.91

Ask: Any idea what its log10(TGI) is? The molecule is O=C1C=C(c2c(-c3ccccc3)[nH]c3ccccc23)C(=O)N1c1ccccc1
Result: 1.72

Ask: Any idea what its log10(TGI) is? The molecule is COc1ccc(-c2nc(N)c(C#N)c3c2CCSc2ccc(C)cc2-3)cc1OC
Result: 1.72

Ask: Any idea what its log10(TGI) is? The molecule is COC(=O)C1=C(C(=O)OC)SC(=C2c3ccsc3-c3sccc32)S1
Result: 1.72

Ask: Any idea what its log10(TGI) is? The molecule is Cn1cc(C2=C(c3c4n(c5ccccc35)CC(CN)C4)C(=O)NC2=O)c2ccccc21 (stereo not drawn)
Result: 0.75
